Each entry below lists one item and its recorded IC50 value.
Test system: JMSU1 bladder cell line
procedure_text: 7-day proliferation assay, JMSU1
Assay type: cell-based
condition_details: JMSU-1, 168 h; JMSU1, 7 days, CellTiter-Glo

{"compound_structure": "CCn1ncc(CN(C)C(=O)c2cc(-c3ccc(NC4CN(C)C4)c(C)n3)nc3ccc(Cl)cc23)c1C", "IC50 [nM]": 546}
{"compound_structure": "CCn1ncc(CN(C)C(=O)c2cc(-c3ccc(NCCNC)c(C)n3)nc3ccc(Cl)cc23)c1C", "IC50 [nM]": 378}
{"compound_structure": "CCc1ncc(CN(C)C(=O)c2cc(-c3ccc(NCCN(C)C)c(C)n3)nc3ccc(Cl)cc23)n1C", "IC50 [nM]": 997}
{"compound_structure": "CCc1noc(CN(C)C(=O)c2cc(-c3ccc(NCCNC)c(C)n3)nc3ccc(Cl)cc23)c1C", "IC50 [nM]": 748}

----------
Each entry below lists one item and its recorded pIC50 value.
Tested on: H3K18Ac in HB-CLS-2 cells
procedure_text: H3K18AC in-cell western (ICW) assay
Type: cell-based
condition_details: H3K18Ac in-cell western; read-out: CREBBP ICW IC50
pIC50: −log10 of the molar value.
quantity_name: pIC50

{"compound_structure": "CCn1ncc(CN(C)C(=O)c2nc(-c3cn(C)cn3)nc3ccc(Cl)cc23)c1C", "target_or_system": "H3K18Ac in HB-CLS-2 cells", "data_value": 4.85}
{"compound_structure": "CCn1ncc(CN(C)C(=O)c2cc(-c3cc4c(N)n[nH]c4c(C)n3)nc3ccc(Cl)cc23)c1C", "target_or_system": "H3K18Ac in HB-CLS-2 cells", "data_value": 6.60}
{"compound_structure": "CCn1ncc(CN(C)C(=O)c2cc(-c3cnc(CN(C)C)[nH]3)nc3ccc(Cl)cc23)c1C", "target_or_system": "H3K18Ac in HB-CLS-2 cells", "data_value": 5.19}
{"compound_structure": "Cc1nc(-c2cc(C(=O)N(C)Cc3cnn(CC(F)(F)F)c3C)c3cc(Cl)ccc3n2)ccc1NCCN(C)C", "target_or_system": "H3K18Ac in HB-CLS-2 cells", "data_value": 7.14}
{"compound_structure": "CCn1ncc(CN(C)C(=O)c2cc(-c3cccc(N)n3)nc3ccc(Cl)cc23)c1C", "target_or_system": "H3K18Ac in HB-CLS-2 cells", "data_value": 6.15}
{"compound_structure": "CCn1ncc(CN(C)C(=O)c2nc(-c3ccc(OCCNC)cc3Cl)nc3ccc(Cl)cc23)c1C", "target_or_system": "H3K18Ac in HB-CLS-2 cells", "data_value": 6.72}
{"compound_structure": "CCn1ncc(CN(C)C(=O)c2nc(-c3ccc(OCCO)c(Cl)c3)nc3ccc(Cl)cc23)c1C", "target_or_system": "H3K18Ac in HB-CLS-2 cells", "data_value": 6.43}

----------
Each entry below lists one item and its recorded IC50 value.
target_or_system: CREBBP (1084-1701) (Homo sapiens, UniProt Q92793)
Construct: measured in the following biochemical assay using CREBBP (1084-1701); purchased
Sequence (Q92793 1084-1701): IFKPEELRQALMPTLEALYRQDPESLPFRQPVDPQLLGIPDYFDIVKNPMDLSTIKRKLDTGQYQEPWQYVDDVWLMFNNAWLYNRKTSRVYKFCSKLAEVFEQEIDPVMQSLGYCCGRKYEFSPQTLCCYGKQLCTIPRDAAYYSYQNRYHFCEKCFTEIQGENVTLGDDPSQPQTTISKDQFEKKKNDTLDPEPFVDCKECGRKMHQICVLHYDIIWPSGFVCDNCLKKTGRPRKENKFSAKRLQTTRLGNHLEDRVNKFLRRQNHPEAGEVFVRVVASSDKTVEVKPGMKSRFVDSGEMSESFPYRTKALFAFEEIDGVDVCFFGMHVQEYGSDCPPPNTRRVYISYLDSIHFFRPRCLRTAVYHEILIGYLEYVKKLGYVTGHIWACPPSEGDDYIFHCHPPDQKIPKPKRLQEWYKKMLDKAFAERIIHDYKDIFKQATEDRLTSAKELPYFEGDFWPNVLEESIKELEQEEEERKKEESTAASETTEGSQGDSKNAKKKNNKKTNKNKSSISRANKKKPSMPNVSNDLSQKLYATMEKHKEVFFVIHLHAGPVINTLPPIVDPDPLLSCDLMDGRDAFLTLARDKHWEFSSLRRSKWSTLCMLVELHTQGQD
procedure_text: Biochemical assay for CREBBP (1084-1701), SAMDI
condition_details: Peptide #233, Acetyl-CoA, SAMDI mass spectrometry, read-out: CREBBP Biochemistry IC50

{"compound": "COCc1ccc2nc(-c3ccc(NCCN(C)C)c(C)n3)cc(C(=O)N(C)Cc3cnc(C4CC4)n3C)c2c1", "IC50": "73.3 nM"}
{"compound": "Cc1nc(-c2cc(C(=O)N(C)Cc3cnc(C4CC4)n3C)c3cc(Cl)ccc3n2)ccc1NC1CCN(C)C1 (centres unmarked)", "IC50": "24.6 nM"}
{"compound": "CCc1ncc(CN(C)C(=O)c2nc(-c3cc(-c4ncc[nH]4)n(C)n3)nc3ccc(Cl)cc23)n1C", "IC50": "16.7 nM"}
{"compound": "CCn1ncc(C(N(C)C(=O)c2cc(-c3ccc(NCCN(C)C)c(C)n3)nc3ccc(Cl)cc23)C(F)(F)F)c1C (centres unmarked)", "IC50": "50000 nM"}
{"compound": "CCn1ncc(CN(C)C(=O)c2nc(-c3cnc4n[nH]c(NC)c4c3)nc3ccc(Cl)cc23)c1C", "IC50": "3.2 nM"}
{"compound": "CCn1ncc(CN(C)C(=O)c2cc(-c3cc(C(=O)NC)n(C)n3)nc3ccc(C4CC4)cc23)c1C", "IC50": "24.2 nM"}
{"compound": "CCc1ncc(CN(C)C(=O)c2cc(-c3ccc(NCCN(C)C)c(C)n3)nc3ccc(COC)cc23)n1C", "IC50": "98.7 nM"}
{"compound": "CCc1ncc(CN(C)C(=O)c2cc(-c3ccc(NC4CCN(C)C4)c(C)n3)nc3ccc(Cl)cc23)n1C (centres unmarked)", "IC50": "28.1 nM"}
{"compound": "CCc1ncc(CN(C)C(=O)c2cc(-c3cc(C(=O)NC)n(C)n3)nc3ccc(C4CC4)cc23)n1C", "IC50": "24.8 nM"}
{"compound": "CCn1ncc(CN(C)C(=O)c2nc(-c3cc(C(=O)NC)n(C)n3)nc3ccc(C4CC4)cc23)c1C", "IC50": "116 nM"}
{"compound": "CCc1ncc(CN(C)C(=O)c2nc(-c3cc(C(=O)NC)n(C)n3)nc3ccc(C4CC4)cc23)n1C", "IC50": "34.3 nM"}

Entry source: patent US20220144812A1
